Assay: solvent given as SMILES
Conditions: in Cc1ccccc1
Please note: t applies when absorption maximum is 400 nm or greater, and f applies otherwise.

For orientation, consider the following solved cases.
compound_string=CCN(CC)c1ccc(-c2nc3c(c4c2-c2ccc(C#N)cc2CC4)-c2ccc(C#N)cc2CC3)cc1 assigned_category=f
compound_string=Nc1nc(/C=C/c2ccc(N(c3ccccc3)c3ccccc3)cc2)cc(/C=C/c2ccc(N(c3ccccc3)c3ccccc3)cc2)n1 assigned_category=t
compound_string=CN(C)c1ccc(C2=Nc3sc4cc(Cl)ccc4[n+]3[B-](F)(F)O2)cc1 assigned_category=t
compound_string=c1ccc(-c2nc(-c3ccc(-c4ccc(-n5c6ccccc6c6ccccc65)cc4)cn3)oc2-c2ccccc2)cc1 assigned_category=f
compound_string=BrCCCCCCCCCCCCOc1cc2ccc3cccc4ccc(c1)c2c34 assigned_category=f

Exercise: Tell me whether absorption maximum is at least 400 nm here: "Cc1ccc(C2=C3C=CC(C#Cc4ccccc4)=[N+]3[B-](F)(F)n3c(C#Cc4ccccc4)ccc32)cc1"
Solution: t

Exercise: Now consider "COc1ccc(C2=CC(c3ccccc3)=[N+]3C2=Nc2c(-c4ccc(OC)cc4)cc(-c4ccccc4)n2[B-]3(F)F)cc1" .
Solution: t

----------
# absorption maximum per entry
Test: solvent given as SMILES
Details: in ClC(Cl)Cl
Please give a number only; it is taken to be in nm.

Below, each entry is followed by its recorded absorption maximum result.
compound=Cc1cccc(C2=Cc3ccc4ccccc4[n+]3[B-](F)(F)O2)c1 result_value=429
compound=CC(C)c1cccc(C(C)C)c1-n1c(=O)c2cc3nc(-c4ccccc4)c4cc5c(=O)n(-c6c(C(C)C)cccc6C(C)C)c(=O)c6cc7c(-c8ccccc8)nc8cc(c1=O)c2c1c3c4c(c56)c7c81 result_value=480
compound=c1ccc(-n2c(-c3ccc(-c4ccc(-c5ccc(-c6nc7c8ccccc8c8ccccc8c7n6-c6ccccc6)cc5)cc4)cc3)nc3ccccc32)cc1 result_value=340

Exercise: // returns reported absorption maximum for input "CCN1C(=CC2=C([O-])C(=CC3=[N+](CC)c4ccccc4C3(C)C)C2=O)C(C)(C)c2ccccc21"
Solution: 635

Exercise: Can you check "c1csc(-c2ccc(-c3cccs3)c3nsnc23)c1" next?
Solution: 445

Exercise: Same thing, different compound: "CC(C)(C)c1cc2ccc3cccc4c3c2c(c1)c1nc2c3cc(C(C)(C)C)cc5ccc6cccc(c(=O)n2c41)c6c53"
Solution: 395

Exercise: // next record O=P1(c2ccccc2)C(c2cc(C(F)(F)F)cc(C(F)(F)F)c2)=Cc2c3ccc4cccc5ccc(c6cc(-c7ccc(N(c8ccccc8)c8ccccc8)cc7)n1c26)c3c45 (stereo not given)
Solution: 441

Exercise: # repeat for O=C1CC(c2ccc([N+](=O)[O-])cc2)c2c(c3ccccc3c3nc4ccccc4nc23)O1 (stereo not given)
Solution: 408

Exercise: Then what about the compound "O=C1c2ccc3c4ccc5c6c(ccc(c7ccc(c2c37)C(=O)N1c1ccncc1)c64)C(=O)N(c1ccncc1)C5=O" ?
Solution: 530

Exercise: // next record "N#Cc1ccc(C#Cc2ccccc2C#N)cc1"
Solution: 297

Exercise: What do you get for "CN(C)c1ccc(/C=C/C(=C(C#N)C#N)c2ccc3c4c(cccc24)CC3)cc1" ?
Solution: 483

Exercise: What would you report for "F[B-]1(F)OC(c2cccc(Br)c2)=Cc2c3ccccc3cc[n+]21" ?
Solution: 399.5

Exercise: Request: "COc1ccc(C2=Cc3ccc4ccccc4[n+]3[B-](F)(F)O2)cc1"
Solution: 439

Exercise: Now the same for "O=C1c2cc(-n3c4ccccc4c4ccccc43)ccc2S(=O)(=O)c2ccc(-n3c4ccccc4c4ccccc43)cc21"
Solution: 406

Exercise: // next record "CCOC(=O)/C(C#N)=C/c1cc2c3ccccc3n(C)c2cc1OC"
Solution: 415

Exercise: Again, but for "Cc1ccc2c3ccc(C)cc3c3cc4c(C)cc(=O)oc4cc3c2c1"
Solution: 386

Exercise: Now consider "Nc1nc(/C=C/c2ccc(N(c3ccccc3)c3ccccc3)cc2)cc(/C=C/c2ccc(N(c3ccccc3)c3ccccc3)cc2)n1" .
Solution: 432

Exercise: Can you check "CC(=O)O[B-]1(OC(C)=O)OC(/C=C/c2ccc(C)cc2)=CC(/C=C/c2ccc(C)cc2)=[O+]1" next?
Solution: 440

Exercise: Would you mind doing "F[B-]1(F)OC(c2ccc(Br)cc2)=Cc2ccc3ccccc3[n+]21" as well?
Solution: 430

Exercise: Please answer likewise for "F[B-]1(F)OC(c2ccc(N3CCCC3)cc2)=Cc2cccc[n+]21"
Solution: 438

Exercise: Queued: "COc1cc(OC)c2cc(-c3ccccc3CC#N)c(=O)oc2c1"
Solution: 342

Exercise: How about this compound: "Clc1cc(Cl)c([C](c2c(Cl)cc(Cl)cc2Cl)c2c(Cl)cc(-n3c4ccccc4c4ccccc43)cc2Cl)c(Cl)c1"
Solution: 598

Exercise: Same again, this time with "Cc1cc(C(F)(F)F)nc2c1ccc1nc(-c3ccc(Cl)cc3)cn12"
Solution: 369.2

Exercise: # iterate: "F[B-]1(F)n2c(cc3c2-c2ccccc2CC3)C(c2ccc(I)cc2)=C2C=C3CCc4ccccc4C3=[N+]21"
Solution: 634

Exercise: Param item: "F[B-]1(F)OC(c2ccccc2)=Cc2c3ccccc3cc[n+]21"
Solution: 400
